# ASSAYED SYSTEM: T1, Peptide 4: Biotin-AGGGGSGGGGSGGGGSAAA-Tyr-acid (N-terminal biotin; C-terminal acid; no PC)
# T1 construct: control peptide without PC
# T1 peptide: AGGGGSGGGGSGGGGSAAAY
# METHOD: scFv ELISA
QUANTITY MEASURED: OD450 (OD450)

BINDER	QUANTITY MEASURED	REPORTED
PcOxP_DB01_E03 (scFv, V domains shown, scFv in periplasmic extract) VH: EVQLLESGGGLVQPGGSLRLSCAASGFGFSDFYMEWVRQAPGKGLEWVGASRNKHNDYTTEYADSVKGRFTISRDNSKNTLYLQMNSLRAEDTAVYYCARDYYGSSYWYFDVWGQGTLVTVSS VL: DIVMTQSPDSLAVSLGERATINCKSSESVYSSKHKKHYLAWYQQKPGQPPKLLIYGASNRYIGVPDRFSGSGSGTDFTLTISSLQAEDVAVYYCAQFYSYPLTFGGGTKVEIK	OD450	0.05
PcOxP_DB02_B04 (scFv, V domains shown, scFv in periplasmic extract) VH: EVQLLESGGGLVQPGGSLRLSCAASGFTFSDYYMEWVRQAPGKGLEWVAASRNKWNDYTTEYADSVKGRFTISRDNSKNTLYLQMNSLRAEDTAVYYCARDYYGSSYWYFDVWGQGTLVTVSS VL: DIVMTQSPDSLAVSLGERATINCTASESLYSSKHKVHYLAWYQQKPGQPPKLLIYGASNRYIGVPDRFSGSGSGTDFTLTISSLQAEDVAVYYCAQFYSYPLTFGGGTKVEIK	OD450	0.05
PcOxP_DB02_D02 (scFv, V domains shown, scFv in periplasmic extract) VH: EVQLLESGGGLVQPGGSLRLSCAASGFTFSDYYMEWVRQAPGKGLEWVAASRNKANDYTTEYADSVKGRFTISRDNSKNTLYLQMNSLRAEDTAVYYCARDYYGSSYWYFDTWGQGTLVTVSS VL: DIVMTQSPDSLAVSLGERATINCTSSESVYSSSHKVHYLAWYQQKPGQPPKLLIYGASNRYIGVPDRFSGSGSGTDFTLTISSLQAEDVAVYYCAQFYYYPLTFGGGTKVEIK	OD450	0.04
